IC50 values by entry
Target: SGK3 (Homo sapiens)
Sequence (Q96BR1 whole entry): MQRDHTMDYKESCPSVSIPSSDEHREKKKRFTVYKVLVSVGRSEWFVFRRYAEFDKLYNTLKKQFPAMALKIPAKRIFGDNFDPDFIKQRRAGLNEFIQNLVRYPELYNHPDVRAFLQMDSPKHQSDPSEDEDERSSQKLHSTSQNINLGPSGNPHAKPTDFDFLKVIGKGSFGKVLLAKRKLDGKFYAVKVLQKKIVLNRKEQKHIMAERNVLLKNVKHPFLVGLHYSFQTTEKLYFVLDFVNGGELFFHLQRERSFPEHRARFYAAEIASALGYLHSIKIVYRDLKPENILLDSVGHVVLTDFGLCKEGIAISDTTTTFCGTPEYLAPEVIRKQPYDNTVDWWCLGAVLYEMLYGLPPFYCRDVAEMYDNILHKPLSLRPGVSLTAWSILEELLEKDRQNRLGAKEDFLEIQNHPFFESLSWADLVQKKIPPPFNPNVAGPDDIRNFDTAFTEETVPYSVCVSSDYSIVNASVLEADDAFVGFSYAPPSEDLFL
Experiment: IC50 determination, biochemical kinase assay
Conditions: not in the presence of VHL

Use these answered entries as a reference point.
MOLECULE: Cc1ccc(F)c(S(=O)(=O)Nc2ccc(-c3nc(OC[C@H]4CN(CCOCCOCCOCCOCCOCC(=O)N[C@H](C(=O)N5C[C@H](O)C[C@H]5C(=O)NCc5ccc(-c6scnc6C)cc5)C(C)(C)C)CCO4)c4cn[nH]c4n3)cc2)c1 [DAT7]
TARGET DESC: SGK3 (Homo sapiens)
IC50: > 10 µM
--
MOLECULE: Cc1ccc(F)c(S(=O)(=O)Nc2ccc(-c3nc(OC[C@H]4CN(CCOCCOCC(=O)N[C@H](C(=O)N5C[C@H](O)C[C@H]5C(=O)NCc5ccc(-c6scnc6C)cc5)C(C)(C)C)CCO4)c4cn[nH]c4n3)cc2)c1 [DAT5]
TARGET DESC: SGK3 (Homo sapiens)
IC50: > 10 µM

Shift focus to the following entry.
Consider Cc1ccc(F)c(S(=O)(=O)Nc2ccc(-c3nc(OC[C@H]4CN(CCOCCOCCOCCOCC(=O)N[C@H](C(=O)N5C[C@H](O)C[C@H]5C(=O)NCc5ccc(-c6scnc6C)cc5)C(C)(C)C)CCO4)c4cn[nH]c4n3)cc2)c1 [DAT6] . Its measured IC50 is > 10 µM

Hey, just so you know, these numbers are from paper PMC6757289.
